Measured viability increase of individual entries
assay: viability gain of MRP-1-high H69AR cells under doxorubicin, pilot screen, MRP-1 activator project, CellTiter-Glo, duplicate (AID 807);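 note: compound pretreatment 18-22 h then 72 h combined with doxorubicin; 0% = doxorubicin alone and 100% = vehicle without doxorubicin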
condition.parameters: H69AR viability with doxorubicin, CellTiter-Glo luminescence; at 10 µM; active compounds read high
quantity.kind: viability increase (%)

- compound: "CCOc1cccc(OCCOCCN(C)Cc2ccccc2)c1"
  unit.name: "%"
  value: -4.15
- compound: "COc1ccc2c(c1)SC1=NCCS(=O)(=O)N12"
  unit.name: "%"
  value: -2.86
- compound: "COC(=O)c1ccc(CSc2nc3c(c(=O)n2-c2ccc(Br)cc2)SCC3)o1"
  unit.name: "%"
  value: -3.79
- compound: "O=C(NC(C(=O)c1ccccc1)N1CCCCC1)c1ccccc1 (stereo unspecified)"
  unit.name: "%"
  value: -2.31
- compound: "Cc1cc(C)n(C(=O)CCCC(=O)n2nc(C)cc2C)n1"
  unit.name: "%"
  value: -1.19
- compound: "Cc1ccc(NC2=CC(=O)CC(c3ccco3)C2)c(N)c1 (stereo unspecified)"
  unit.name: "%"
  value: -4.41

----------
assay: growth suppression of beta-catenin knockout HCT116, pilot screen, human colon tumor cells (AID 823);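 note: 0% = wells killed by 20 µM Hyamine and 100% = untreated DMSO cell wells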
condition.parameters: CellTiter-Glo, 60 h, at 10 µM
Inconclusive results are not listed. The source made the active and inactive calls.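 Rule for the calls: active = cell viability at or below a set limit in both duplicate runs, the limit being the all-compound median minus 4 SD (cut at about 23% in these data, passing the limit was not always enough); inconclusive = no clear call, values can overlap the other calls; inactive = the rest.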
Outcome codes: active, inactive

- compound: "COc1ccc2[nH]c(C)c(CCN3C(=O)C4CC=CCC4C3=O)c2c1 (configuration not stated)"
  discrete.label: "inactive"
- compound: "O=C(NCc1cn2ccsc2n1)c1c(F)cccc1Cl"
  discrete.label: "inactive"
- compound: "CCN(CCNC(=O)C1CCCN(S(=O)(=O)c2cnc[nH]2)C1)c1ccccc1 (configuration not stated)"
  discrete.label: "inactive"
- compound: "CC1=CS/C(=C(/C#N)C(=O)N2CCCCC2)N1c1ccccc1"
  discrete.label: "inactive"
- compound: "COc1ccc(S(=O)(=O)NCCSc2ccc(C)cc2)cc1OC"
  discrete.label: "inactive"
- compound: "CCCCn1c(C(C)NC(=O)COC)nc2ccccc21 (configuration not stated)"
  discrete.label: "inactive"
- compound: "COc1ccc(C)cc1NC(=O)Cn1cnc2sc(C)c(S(=O)(=O)N3CCOCC3)c2c1=O"
  discrete.label: "inactive"
- compound: "CC1=CC(C)(C)Nc2ccc(OC(=O)c3ccco3)cc21"
  discrete.label: "active"
- compound: "Cc1cccc(-n2c(Cc3cc(=O)[nH]c(=O)[nH]3)nnc2SCC(=O)N2CCCCC2)c1"
  discrete.label: "inactive"
- compound: "CCCCNC(=O)C1c2cc(OC)c(OC)cc2C(=O)N(C)C1c1ccc(OC)cc1 (configuration not stated)"
  discrete.label: "inactive"
- compound: "O=C(NCCC1=CCCCC1)C1CCCN(S(=O)(=O)c2cccc3cccnc23)C1 (configuration not stated)"
  discrete.label: "inactive"
- compound: "CCS(=O)(=O)NCCc1csc(-c2cccnc2)n1"
  discrete.label: "inactive"
- compound: "CC(C)c1ccc(NC(=O)c2cccnc2)cc1"
  discrete.label: "inactive"
- compound: "CCOC(=O)c1c(NC(=O)CN2CCCCC2)sc2c1CCCC2O (configuration not stated)"
  discrete.label: "inactive"
- compound: "NC(=O)CN1CCN(C(=O)NC2CCCCC2)CC1"
  discrete.label: "inactive"
- compound: "CCCCNC(=O)c1cc(-c2ccc(OC)c(OC)c2)on1"
  discrete.label: "inactive"
- compound: "CCOC(=O)Cn1c(CN2CCOCC2)nc2c1c(=O)n(C)c(=O)n2C"
  discrete.label: "inactive"
- compound: "O=C(OCCOCCN=C1NS(=O)(=O)c2ccccc21)C1CC(=O)N(c2ccccc2)C1 (configuration not stated)"
  discrete.label: "inactive"
- compound: "COc1ccc(CNC(=O)c2ccc(NC(=O)C3CCCO3)cc2)cc1 (configuration not stated)"
  discrete.label: "inactive"
- compound: "Cn1c2c(c3ccccc31)CC/C2=N\\O"
  discrete.label: "inactive"
- compound: "Cc1noc(NS(=O)(=O)c2ccc(NC(=O)COc3ccc(Cl)cc3Cl)cc2)c1C"
  discrete.label: "inactive"
- compound: "CCOC(=O)CON1C(=O)C(C)(C)N(OCC(=O)OCC)C(=O)C1(C)C"
  discrete.label: "inactive"
- compound: "Cc1cc(C)cc(N(CC(=O)NCc2ccco2)S(=O)(=O)c2c(C)noc2C)c1"
  discrete.label: "inactive"
- compound: "CCSc1nc2ccccc2n1S(=O)(=O)c1ccccc1"
  discrete.label: "inactive"
- compound: "Cn1c(CSc2nc3ccc(Br)cc3[nH]2)nc2ccccc21"
  discrete.label: "inactive"
- compound: "O=C(Cn1cnc2c(nnn2-c2cccc(Cl)c2)c1=O)N1CCOCC1"
  discrete.label: "inactive"
- compound: "CCC1(C(=O)O)NC(c2cccc(OC)c2O)C2C(=O)N(c3ccccc3)C(=O)C21 (configuration not stated)"
  discrete.label: "inactive"

Where do the numbers come from? From PubChem BioAssay.
